FYI, the data here is from patent US12479887B2.

Exercise: state measured IC50 for each of the molecules provided.
target: N-terminal methyltransferase1 (NTMT1) (Homo sapiens (Human), UniProt Q9BV86); test: NTMT1 inhibition IC50, SAH hydrolase-coupled fluorescence assay; format: biochemical
Sequence (Q9BV86 1-222): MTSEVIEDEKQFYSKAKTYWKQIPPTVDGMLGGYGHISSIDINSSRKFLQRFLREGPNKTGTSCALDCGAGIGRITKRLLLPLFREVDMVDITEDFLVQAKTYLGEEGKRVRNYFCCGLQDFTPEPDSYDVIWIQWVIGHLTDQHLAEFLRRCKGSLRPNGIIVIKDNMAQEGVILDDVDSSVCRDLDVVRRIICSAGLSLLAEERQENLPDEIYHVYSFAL
Non-standard residues stand in square brackets, D forms with d. Residues, ends and D or L forms follow the SMILES beside them. *: point of attachment. Acetyl(1-naphthyl) = O=C(Cc1cccc2ccccc12)*; Pra = C#CC[C@H](N)C(=O)O
Supply the numeric figure in nM, leaving out any unit text.

**Q:** # return recorded IC50 for entry CC[C@H](C)[C@H](NC(=O)[C@H](CCCNC(=N)N)NC(=O)[C@H](CCCCN)NC(=O)[C@@H]1CCCN1C(=O)Cc1cccc2ccccc12)C(N)=O [Compound 24] ({Acetyl(1-naphthyl)}-PKRI-NH2)
**A:** 60

**Q:** # return recorded IC50 for entry "N=C(N)NCCC[C@H](NC(=O)[C@H](CCCCN)NC(=O)[C@@H]1CCCN1C(=O)/C=C/c1ccc(O)cc1)C(N)=O"
**A:** 2500

**Q:** # return recorded IC50 for entry N=C(N)NCCC[C@H](NC(=O)[C@H](CCCNC(=N)N)NC(=O)[C@H](CCCCN)NC(=O)[C@@H]1CCCN1C(=O)Cc1cccc2ccccc12)C(N)=O [Compound 25] ({Acetyl(1-naphthyl)}-PKRR-NH2)
**A:** 40

**Q:** # return recorded IC50 for entry "N=C(N)NCCC[C@H](NC(=O)[C@H](CCCCN)NC(=O)[C@@H]1CCCN1C(=O)Cc1cccc2ccccc12)C(N)=O"
**A:** 400

**Q:** # return recorded IC50 for entry N=C(N)NCCC[C@H](NC(=O)[C@H](CCCCN)NC(=O)[C@@H]1CCCN1C(=O)Cc1cccc2ccccc12)C(=O)N[C@@H](Cc1c[nH]c2ccccc12)C(N)=O [Compound 43] ({Acetyl(1-naphthyl)}-PKRW-NH2)
**A:** 95

**Q:** # return recorded IC50 for entry C#CC[C@H](NC(=O)[C@H](CCCNC(=N)N)NC(=O)[C@H](CCCCN)NC(=O)[C@@H]1CCCN1C(=O)Cc1cccc2ccccc12)C(N)=O [Compound 26] ({Acetyl(1-naphthyl)}-PKR[Pra]-NH2)
**A:** 90

**Q:** # return recorded IC50 for entry N=C(N)NCCC[C@H](NC(=O)[C@H](CCCCN)NC(=O)[C@@H]1CCCN1C(=O)Cc1cccc2ccccc12)C(=O)N[C@@H](Cc1ccc(O)cc1)C(N)=O [Compound 44] ({Acetyl(1-naphthyl)}-PKRY-NH2)
**A:** 79

###

target: UniProtKB Q9BV86; assay: NTMT1 inhibition IC50, SAH hydrolase-coupled fluorescence assay; assay type: biochemical; details: 0.2 μM NTMT1, 1 μM GPKRIA peptide substrate, 37° C., ThioGlo1 fluorescence
Residues, ends and D or L forms follow the SMILES beside them. *: point of attachment. Acetyl(1-naphthyl) = O=C(Cc1cccc2ccccc12)*; ClAc = O=C(CCl)*
Exercise: state measured log10 of IC50 for each of the molecules provided.
Scale: decimal log of IC50, IC50 in µM.

**Q:** # return recorded log10 of IC50 for entry N=C(N)NCCC[C@H](NC(=O)[C@H](CCCCN)NC(=O)[C@@H]1CCCN1C(=O)[C@@H]1CCCN1C(=O)CCl)C(=O)O [Compound 12] (ClAc-PPKR-OH)
**A:** 1.20

**Q:** # return recorded log10 of IC50 for entry "NCCCC[C@H](NC(=O)[C@@H]1CCCN1C(=O)Cc1cccc2ccccc12)C(=O)N[C@@H](CCC(=O)O)C(N)=O"
**A:** 0.76

**Q:** # return recorded log10 of IC50 for entry N=C(N)NCCC[C@H](NC(=O)[C@H](CCCNC(=N)N)NC(=O)[C@H](CCCNC(=N)N)NC(=O)[C@H](CCCNC(=N)N)NC(=O)[C@H](CCCNC(=N)N)NC(=O)[C@H](CCCNC(=N)N)NC(=O)[C@H](CCCCN)NC(=O)[C@@H]1CCCN1C(=O)Cc1cccc2ccccc12)C(N)=O [Compound 34] ({Acetyl(1-naphthyl)}-PKRRRRRR-NH2)
**A:** -1.17

**Q:** # return recorded log10 of IC50 for entry "N=C(N)NCCC[C@H](NC(=O)[C@H](CCCCN)NC(=O)[C@@H]1CCCN1C(=O)Cc1cccc2[nH]ccc12)C(N)=O"
**A:** -0.80

**Q:** # return recorded log10 of IC50 for entry "N=C(N)NCCC[C@H](NC(=O)[C@H](CCCNC(=N)N)NC(=O)[C@H](CCCNC(=N)N)NC(=O)[C@H](CCC(N)=O)NC(=O)[C@H](CCCNC(=N)N)NC(=O)[C@H](CCCNC(=N)N)NC(=O)[C@H](CCCCN)NC(=O)[C@H](CCCCN)NC(=O)[C@H](CCCNC(=N)N)NC(=O)CNC(=O)[C@H](CCCNC(=N)N)NC(=O)[C@H](CCCCN)NC(=O)[C@@H]1CCCN1C(=O)Cc1ccc(O)cc1)C(=O)O"
**A:** -0.64

**Q:** # return recorded log10 of IC50 for entry "N=C(N)NCCC[C@H](NC(=O)[C@H](CCCCN)NC(=O)[C@@H]1CCCN1C(=O)Cc1ccc(CO)cc1)C(N)=O"
**A:** 0.18

###

molecular target: N-terminal methyltransferase1 (NTMT1) (Homo sapiens (Human), UniProt Q9BV86); assay: NTMT1 inhibition IC50, SAH hydrolase-coupled fluorescence assay; type: biochemical
pIC50: −log10 of the molar value. Non-standard residues stand in square brackets, D forms with d. Residues, ends and D or L forms follow the SMILES beside them. *: point of attachment. dHpg = N[C@@H](C(=O)O)c1ccc(O)cc1; Hpg = N[C@H](C(=O)O)c1ccc(O)cc1; X1 = O=C(Cc1ccc(O)cc1)*
reportedMetric: pIC50

**Q:** # return recorded pIC50 for entry N=C(N)NCCC[C@H](NC(=O)[C@H](CCCCN)NC(=O)[C@@H]1CCCN1C(=O)[C@@H](NC(=O)Cc1ccc(O)cc1)c1ccc(O)cc1)C(N)=O [Compound 22] (X1-[Hpg]PKR-NH2)
**A:** < 4.00

**Q:** # return recorded pIC50 for entry "N=C(N)NCCC[C@H](NC(=O)[C@H](CCCCN)NC(=O)[C@@H]1CCCN1C(=O)[C@@H](NCCc1ccc(O)cc1)c1ccc(O)cc1)C(N)=O"
**A:** < 4.00

**Q:** # return recorded pIC50 for entry "N=C(N)NCCC[C@H](NC(=O)[C@H](CCCCN)NC(=O)[C@@H]1CCCN1C(=O)[C@H](NCCc1ccc(O)cc1)c1ccc(O)cc1)C(N)=O"
**A:** < 4.00

**Q:** # return recorded pIC50 for entry N=C(N)NCCC[C@H](NC(=O)[C@H](CCCCN)NC(=O)[C@@H]1CCCN1C(=O)[C@H](NC(=O)Cc1ccc(O)cc1)c1ccc(O)cc1)C(N)=O [Compound 21] (X1-[dHpg]PKR-NH2)
**A:** < 4.00
